- assay remarks: Cmax in Wistar rat at 30 mg/kg, po
- Type: ADME, organism-based
- Design: dose 30 mg/kg, route oral
- protocol conditions: in vivo
quantity kind: Cmax

{"columns": ["compound smiles", "observed value"],
 "data": [
  ["COc1ccc(/C(C)=N/OCCOc2ccc(C[C@H]3CO[C@@](C)(C(=O)O)OC3)cc2)cc1", "120 ng/mL"]
]}
